emission maximum by entry:
- experiment: solvent given as SMILES
- protocolConditions: in C1CCOC1

{"columns": ["cpdSmiles", "unitName", "emission maximum"],
 "data": [
  ["c1ccc2c(c1)-c1ccccc1C21c2ccccc2-c2oc3c(c21)C1(c2ccccc2-c2ccccc21)c1ccccc1-3", "nm", 393],
  ["C(=C\\c1ncnc2ccccc12)/c1ccc(N(c2ccccc2)c2ccccc2)cc1", "nm", 540],
  ["Cc1ccc(/C=N/c2cc(C(C)C)c(O)cc2C)cc1", "nm", 410],
  ["C(=C\\c1ccncn1)/c1ccc(N2CCCCC2)cc1", "nm", 486],
  ["O=C1c2ccccc2-c2ccc(N3CCN(c4ccccc4)CC3)c3cccc1c23", "nm", 583],
  ["CCC1=C(C)C2=C(C)c3c(C)c(-c4csc(N5CCOCC5)n4)c(C)n3[B-](F)(F)[N+]2=C1C", "nm", 618],
  ["O=S(=O)(c1cccc(N2c3ccccc3Sc3ccccc32)c1)c1cccc(N2c3ccccc3Sc3ccccc32)c1", "nm", 596]
]}

---

emission maximum by entry:
- experiment: solvent given as SMILES
- protocolConditions: in CN(C)C=O
measurementType: emission maximum (nm)

{"columns": ["molecule", "unitName", "recordedNumber"],
 "data": [
  ["CCN(CC)c1ccc(/C=N/c2cc3nc4ccccc4nc3cc2/N=C/c2ccc(N(CC)CC)cc2O)c(O)c1", "nm", 599],
  ["COc1ccc2cc(-c3ccc(S(C)(=O)=O)cc3)oc(=O)c2c1", "nm", 410],
  ["CCCN(c1ccccc1)c1ccc2c(c1)C(CC)(CC)c1cc(/C=C/c3ccc(/C=C(\\C#N)C(=O)O)s3)ccc1-2", "nm", 593],
  ["CN(C)c1ccc(/C=C/c2cc[n+](CCC[n+]3ccc(/C=C/c4ccc(N(C)C)cc4)cc3)cc2)cc1", "nm", 607],
  ["CCCCCCCCCCCCCCCCCCN1C(=O)c2cccc3c(OCCN(C)C)ccc(c23)C1=O", "nm", 516],
  ["CC(C)(C)c1ccc(-c2c3ccccc3c3n2[B-](F)(F)[N+]2=Cc4c5ccccc5c(-c5ccc(C(C)(C)C)cc5)n4[B-](F)(F)[N+]2=C3)cc1", "nm", 607],
  ["Fc1cc(-c2ccc(-c3nc4ccccc4[nH]3)cc2)ccc1-c1ccc(-c2nc3ccccc3[nH]2)cc1", "nm", 414],
  ["CCC1=C(C)C2=C(C)c3c(C)c(-c4csc(N5CCOCC5)n4)c(C)n3[B-](F)(F)[N+]2=C1C", "nm", 539],
  ["CCCCCCCN1C(=CC2=C([O-])C(=Cc3sc4ccccc4[n+]3CCCCCCC)C2=C(C#N)C#N)Sc2ccccc21", "nm", 717],
  ["CCn1c2ccc(/C=C/c3ccc4c(c3)c3cc(-c5nc6ccccc6s5)ccc3n4CC)cc2c2cc(-c3nc4ccccc4s3)ccc21", "nm", 449],
  ["CC(C)(C)c1ccc(-c2cc3c4c(c2)CCc2cc(-c5ccc(C(C)(C)C)cc5)cc(c2-4)CC3)cc1", "nm", 386.79],
  ["CCN(CC)c1ccc2cc(/C=C/C3=CC(/C=C/c4cc5ccc(N(CC)CC)cc5oc4=O)=[O+][B-](F)(F)O3)c(=O)oc2c1", "nm", 729],
  ["c1ccc(-n2c(-c3ccc(-c4ccc(-c5ccc(-c6nc7c8ccccc8c8ccccc8c7n6-c6ccccc6)cc5)cc4)cc3)nc3ccccc32)cc1", "nm", 447],
  ["CCNc1ccc(NCC)c2c1C(=O)c1ccccc1C2=O", "nm", 680],
  ["O=C1c2ccccc2-c2ccc(N3CCN(c4ccccc4)CC3)c3cccc1c23", "nm", 602],
  ["C#CCN1C(=O)/C(=C/c2cc(OC(C)C)ccc2OC(C)C)N=C1C", "nm", 500],
  ["CCOC(=O)C(Cc1ccc(O[Si]2(Oc3ccc(CC(NC(C)=O)C(=O)OCC)cc3)n3c4c5ccccc5c3/N=C3N=C(/N=c5/c6ccccc6/c(n52)=N/C2=NC(=N\\4)/c4ccccc42)c2ccccc2\\3)cc1)NC(C)=O (configuration not stated)", "nm", 686],
  ["CCCCOc1ccc(-c2oc3cc4n(c3c2-c2ccc(OCCCC)cc2)[B-](F)(F)[N+]2=Cc3cc5oc(-c6ccc(OCCCC)cc6)c(-c6ccc(OCCCC)cc6)c5n3[B-](F)(F)[N+]2=C4)cc1", "nm", 644],
  ["O=C(/C=C/c1cn(-c2ccccc2)nc1-c1ccccc1)c1c(O)c2ccccc2oc1=O", "nm", 505],
  ["CC(=O)c1ccc2ccc3cccc4ccc1c2c34", "nm", 392],
  ["CCN(CC)c1ccc2cc(/C=C/C(=O)/C=C(O)/C=C/c3cc4ccc(N(CC)CC)cc4oc3=O)c(=O)oc2c1", "nm", 611],
  ["c1cc2c([nH]c3c4[nH]c5sccc5c4c4nsnc4c23)s1", "nm", 547]
]}

---

- experiment: solvent given as SMILES
- protocolConditions: in ClC(Cl)Cl

{"columns": ["cpdSmiles", "emission maximum (nm)"],
 "data": [
  ["C[N+]1=c2cc3c(cc2C(C)(C)CC1)=C(c1ccccc1C(=O)O)c1cc2c(cc1O3)Oc1cc3c(cc1=C2c1ccccc1C(=O)O)C(C)(C)CC[N+]=3C", 612],
  ["CN(C)c1ccc(-c2ccc(-c3ccc(N(C)C)cc3)c3nc(-c4ccccc4)c(-c4ccccc4)nc23)cc1", 597],
  ["Cc1cc(C)cc(NC(=O)c2sc(Br)nc2C)c1", 411.5]
]}

---

emission maximum by entry:
- experiment: solvent given as SMILES
- protocolConditions: in CCO

{"columns": ["compound", "emission maximum"],
 "data": [
  ["N#Cc1cnc(-c2c3ccccc3cc3ccccc23)nc1", "510 nm"],
  ["O=C(/C=C/c1cn(-c2ccccc2)nc1-c1ccccc1)c1c(O)c2ccccc2oc1=O", "507 nm"],
  ["c1ccc(-c2cc(-c3ccc(N(c4ccccc4)c4ccccc4)cc3)cc(-c3ccccc3)n2)cc1", "505 nm"],
  ["CC1CC=C(c2ccc(-c3ccc(C=O)s3)s2)CC1 (stereo not given)", "500 nm"],
  ["CCC1(CC)c2cc(B(c3c(C)cc(C)cc3C)c3c(C)cc(C)cc3C)ccc2-c2c1c1c(c3c2C(CC)(CC)c2cc(N(c4ccccc4)c4ccccc4)ccc2-3)C(CC)(CC)c2cc(B(c3c(C)cc(C)cc3C)c3c(C)cc(C)cc3C)ccc2-1", "512 nm"]
]}

---

- experiment: solvent given as SMILES
- protocolConditions: in Cc1ccccc1
measurementType: emission maximum (nm)

{"columns": ["compound", "measurementType", "recordedNumber"],
 "data": [
  ["O=C(c1ccncc1)c1ccc(-n2c3ccc(-n4c5ccccc5c5ccccc54)cc3c3cc(-n4c5ccccc5c5ccccc54)ccc32)cc1", "emission maximum", 481.09],
  ["COc1ccc(C2=C3C(C)=CC(C)=[N+]3[B-](F)(F)n3c(/C=C/c4ccc(N(C)C)cc4)cc(C)c32)cc1", "emission maximum", 640],
  ["CC(C)c1cccc(C(C)C)c1N1C(=O)c2cc(Oc3ccc(C(C)(C)C)cc3)c3c4c(Oc5ccc(C(C)(C)C)cc5)cc5c6c(cc(Oc7ccc(C(C)(C)C)cc7)c(c7c(Oc8ccc(C(C)(C)C)cc8)cc(c2c37)C1=O)c64)C(=O)N(c1c(C(C)C)cccc1C(C)C)C5=O", "emission maximum", 611],
  ["COc1ccc(-c2csc(/C(C#N)=C/c3ccc(C#N)cc3)n2)cc1", "emission maximum", 519],
  ["CCN1C(=O)C(C2C(=O)c3c4ccccc4cc4cc5ccccc5c2c34)SC1=S (stereo not given)", "emission maximum", 563],
  ["CCN(CC)c1ccc2cc(-c3cn4ccccc4n3)c(=O)oc2c1", "emission maximum", 469],
  ["CCn1c2ccccc2c2cc(-c3cc(-c4ccc5c(c4)c4ccccc4n5CC)ncn3)ccc21", "emission maximum", 379],
  ["Cc1cc(-c2nc(-c3ccccc3)nc(-c3ccccc3)n2)ccc1-n1c2ccccc2c2cc3c(cc21)C1c2ccccc2C3c2ccccc21", "emission maximum", 431],
  ["N#CC1=c2c3cccc4c(Br)ccc(c43)n2[B-](F)(F)[n+]2ccccc21", "emission maximum", 550],
  ["CC(C)(C)c1ccc(-c2nnc(-c3c(-n4c5ccccc5c5ccccc54)c(-n4c5ccccc5c5ccccc54)c(-c4nnc(-c5ccc(C(C)(C)C)cc5)o4)c(-n4c5ccccc5c5ccccc54)c3-n3c4ccccc4c4ccccc43)o2)cc1", "emission maximum", 569]
]}

---

emission maximum by entry:
- experiment: solvent given as SMILES
- protocolConditions: in CO
measurementType: emission maximum (nm)

{"columns": ["cpdSmiles", "recordedNumber"],
 "data": [
  ["CN1CCN(CCCN2c3ccccc3Sc3ccc(Cl)cc32)CC1", 449],
  ["C(=C\\c1cccc2ccccc12)/c1ccc(-c2nnc(-c3ccc(-c4cc5ccccc5s4)cc3)o2)cc1", 448],
  ["CN(C)c1ccc(/C=C/c2nc3ccccc3s2)cc1", 507],
  ["N#Cc1cccc(-c2nc(-c3ccccc3)c(-c3ccccc3)[nH]2)c1", 440],
  ["c1ccc2cc3ccccc3cc2c1", 400],
  ["COc1nc(Cl)nc(Nc2ccc3c4c(cccc24)C(=O)c2ccccc2-3)n1", 578.03]
]}
